Target: serotoninergic 5-HT7 receptor (Homo sapiens, UniProt P34969)
Sequence (P34969 whole entry): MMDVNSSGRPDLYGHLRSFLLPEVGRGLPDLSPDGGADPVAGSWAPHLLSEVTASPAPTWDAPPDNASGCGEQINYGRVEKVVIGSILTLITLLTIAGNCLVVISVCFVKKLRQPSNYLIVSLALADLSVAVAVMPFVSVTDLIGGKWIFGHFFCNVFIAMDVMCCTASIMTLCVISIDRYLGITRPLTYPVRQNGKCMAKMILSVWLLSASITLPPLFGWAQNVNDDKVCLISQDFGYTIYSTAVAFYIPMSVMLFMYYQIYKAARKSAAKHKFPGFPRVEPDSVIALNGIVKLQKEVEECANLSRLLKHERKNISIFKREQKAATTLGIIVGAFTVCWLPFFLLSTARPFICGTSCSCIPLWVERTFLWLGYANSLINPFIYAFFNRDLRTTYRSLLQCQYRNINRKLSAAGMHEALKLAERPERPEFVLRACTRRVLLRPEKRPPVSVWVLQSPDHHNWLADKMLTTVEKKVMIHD
Assay: Binding assay 5-HT7 (h), [3H]LSD, CHO cells
Set-up: expressed in transfected cells; host or cells: CHO cells
Conditions: read-out: 5-HT7
The threshold is inclusive: inhibition at 1 µM of exactly 90% counts as rule met; values below receive rule not met.

Hi, just wondering whether O=S(=O)(NCCCN1CCC(c2noc3cc(F)ccc23)CC1)c1ccc(F)c(Cl)c1 shows inhibition at 1 µM of 90% or higher.
rule met

Hi, just wondering whether O=S(=O)(NCCCCN1CCC(c2noc3cc(F)ccc23)CC1)c1ccc2cc(Cl)ccc2c1 shows inhibition at 1 µM of 90% or higher.
rule met

Hi, just wondering whether Cc1c(S(=O)(=O)NCCCCN2CCN(c3nsc4ccccc34)CC2)sc2ccc(F)cc12 shows inhibition at 1 µM of 90% or higher.
rule met

Hi, just wondering whether O=c1[nH]c2ccc(S(=O)(=O)NCCCCN3CCN(c4cccc5c4OCCO5)CC3)cc2o1 shows inhibition at 1 µM of 90% or higher.
rule met

Hi, just wondering whether O=c1[nH]c2cccc(N3CCN(CCCNS(=O)(=O)c4cccc(F)c4)CC3)c2[nH]1 shows inhibition at 1 µM of 90% or higher.
rule not met

Hi, just wondering whether Cc1c(S(=O)(=O)NCCCCN2CCC(c3noc4cc(F)ccc34)CC2)sc2ccc(Cl)cc12 shows inhibition at 1 µM of 90% or higher.
rule met

Hi, just wondering whether Cc1[nH]c2ccc(Cl)cc2c1C1=CCN(CCNS(=O)(=O)c2ccc(Cl)cc2)CC1 shows inhibition at 1 µM of 90% or higher.
rule not met

Hi, just wondering whether O=C1COc2c(cccc2N2CCN(CCCCNS(=O)(=O)c3ccc4ccccc4c3)CC2)N1 shows inhibition at 1 µM of 90% or higher.
rule met

Hi, just wondering whether Cc1cccc(S(=O)(=O)NCCCN2CCC(c3noc4cc(F)ccc34)CC2)c1 shows inhibition at 1 µM of 90% or higher.
rule met

Hi, just wondering whether O=S(=O)(NCCCN1CCN(c2nsc3ccccc23)CC1)c1cccc(C(F)(F)F)c1 shows inhibition at 1 µM of 90% or higher.
rule met

Hi, just wondering whether O=S(=O)(NCCCN1CCN(c2nsc3ccccc23)CC1)c1ccc2cc(Cl)ccc2c1 shows inhibition at 1 µM of 90% or higher.
rule not met

Hi, just wondering whether O=S(=O)(NCCCCN1CCN(c2nsc3ccccc23)CC1)c1cc2ccc(Cl)cc2s1 shows inhibition at 1 µM of 90% or higher.
rule met

Hi, just wondering whether Cc1[nH]c2ccc(Cl)cc2c1C1=CCN(CCNS(=O)(=O)c2cccc(Cl)c2)CC1 shows inhibition at 1 µM of 90% or higher.
rule not met

Hi, just wondering whether O=S(=O)(NCCCCN1CCN(c2cccc3[nH]ccc23)CC1)c1ccc2cc(Cl)ccc2c1 shows inhibition at 1 µM of 90% or higher.
rule met

Hi, just wondering whether Cc1cc(S(=O)(=O)NCCCN2CCC(c3noc4cc(F)ccc34)CC2)c(C)s1 shows inhibition at 1 µM of 90% or higher.
rule met

Hi, just wondering whether O=S(=O)(NCCCCN1CCN(c2nsc3ccccc23)CC1)c1c[nH]c2ncccc12 shows inhibition at 1 µM of 90% or higher.
rule met

Hi, just wondering whether O=C1COc2c(cccc2N2CCN(CCCCNS(=O)(=O)c3ccc(F)cc3)CC2)N1 shows inhibition at 1 µM of 90% or higher.
rule not met

Hi, just wondering whether O=S(=O)(NCCCN1CCN(c2nsc3ccccc23)CC1)c1ccc(F)cc1 shows inhibition at 1 µM of 90% or higher.
rule met

Hi, just wondering whether O=S(=O)(NCCCCN1CCC(c2noc3cc(F)ccc23)CC1)c1cc2ccc(Cl)cc2s1 shows inhibition at 1 µM of 90% or higher.
rule met

Hi, just wondering whether O=S(=O)(NCCCCN1CCN(c2nsc3ccccc23)CC1)c1ccc(F)c(Cl)c1 shows inhibition at 1 µM of 90% or higher.
rule met

Hi, just wondering whether Cc1[nH]c2ccc(Cl)cc2c1C1=CCN(CCNS(=O)(=O)c2ccc(F)cc2)CC1 shows inhibition at 1 µM of 90% or higher.
rule not met

Hi, just wondering whether Cc1c(S(=O)(=O)NCCCCN2CCN(c3cccc4[nH]c(=O)[nH]c34)CC2)sc2ccc(Cl)cc12 shows inhibition at 1 µM of 90% or higher.
rule not met

Hi, just wondering whether Cc1cccc(S(=O)(=O)NCCCN2CCN(c3cccc4c3OCCO4)CC2)c1 shows inhibition at 1 µM of 90% or higher.
rule met

Hi, just wondering whether O=S(=O)(NCCCCN1CCN(c2noc3ccccc23)CC1)c1ccc2ccccc2c1 shows inhibition at 1 µM of 90% or higher.
rule met
